Target: T1, Human CD228 protein (human, UniProt P08582 20-708, limits assumed)
T1 construct: Recombinant protein made in CHO cells, purified over a Ni column; The printed entry begins with the leader (MRGPSG...) and ends with ten His; also called hCD228; CD228-His protein
T1 sequence: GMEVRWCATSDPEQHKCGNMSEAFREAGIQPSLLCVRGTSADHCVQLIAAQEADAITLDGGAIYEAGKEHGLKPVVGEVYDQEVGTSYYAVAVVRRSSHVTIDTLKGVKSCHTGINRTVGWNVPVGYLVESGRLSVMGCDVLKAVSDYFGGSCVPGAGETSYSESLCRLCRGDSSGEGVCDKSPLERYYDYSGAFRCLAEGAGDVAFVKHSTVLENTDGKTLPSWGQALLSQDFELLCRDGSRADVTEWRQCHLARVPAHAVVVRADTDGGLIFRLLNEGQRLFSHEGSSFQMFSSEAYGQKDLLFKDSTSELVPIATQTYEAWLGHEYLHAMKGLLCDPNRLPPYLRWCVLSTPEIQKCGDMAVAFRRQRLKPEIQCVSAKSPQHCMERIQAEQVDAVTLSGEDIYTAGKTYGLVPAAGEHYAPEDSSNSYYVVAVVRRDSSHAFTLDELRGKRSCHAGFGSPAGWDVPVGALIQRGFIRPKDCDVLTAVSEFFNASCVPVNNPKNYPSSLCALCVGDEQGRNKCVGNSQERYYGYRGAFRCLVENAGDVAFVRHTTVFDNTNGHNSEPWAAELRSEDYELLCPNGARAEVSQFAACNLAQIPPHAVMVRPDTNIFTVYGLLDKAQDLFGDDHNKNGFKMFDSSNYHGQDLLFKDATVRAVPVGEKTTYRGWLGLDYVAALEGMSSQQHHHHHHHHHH
Assay: Octet competition on His-chip CD228; competitor: hl49
property.name: competition (1-response value/blank value) (%)
Unit % implied. Number only.

**Q:** So what's the measured competition (1-response value/blank value) for this one? CA149 (antibody, human IgG1, kappa, V domains shown, Intact IgG1; also called CA149 antibody) VH: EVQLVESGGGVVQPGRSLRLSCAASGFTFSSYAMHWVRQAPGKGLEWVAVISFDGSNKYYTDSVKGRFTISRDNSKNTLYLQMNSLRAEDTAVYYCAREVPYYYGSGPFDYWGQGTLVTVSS VL: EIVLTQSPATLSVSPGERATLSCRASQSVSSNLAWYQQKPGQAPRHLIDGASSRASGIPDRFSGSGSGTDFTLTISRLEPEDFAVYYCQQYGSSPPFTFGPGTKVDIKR
**A:** 0
